Reference for the values: PubChem BioAssay (NCI)

# System: HOP-62 NSCLC
# protocol.text: NCI-60 one-dose screen, 48 h (100 = growth as untreated, 0 = no growth, -100 = all killed)
# run.conditions: 10 µM unless noted
# Protocol: Growth inhibition of the HOP-62 human Non-Small Cell Lung tumor cell line is measured as a screen for anti-cancer activity. Cells are grown in 96 well plates and exposed to the test compound for 48 hours. Compounds are tested at a single concentration, which is 10^-5 M for most compounds. The reported endpoint is percent growth (GI% or GIPRCNT), where numbers from 0 - 100% represent growth inhibition, and numbers from -100% - 0 represent cell death. […]
About 83,000 compounds went through this panel and 20% of them were active in at least one assay; those are over-represented in the sample as a whole.
Classification field: True = growth at or over 10%; False = growth under 10%.

Examples from the recorded data:
{"molecule": "C/C=C/C=N/NC(=S)Nc1ccccc1", "group": "True"}
{"molecule": "Cc1cc(N(CCNc2ccnc3cc(Cl)ccc23)Cc2ccc3c(c2)OCO3)nc(N2CCN(C)CC2)n1", "group": "False"}
{"molecule": "COc1ccc(S(=O)(=O)N(C(C)=O)c2ccccc2/C=C/c2cc[n+]([O-])cc2)cc1", "group": "True"}
{"molecule": "CCc1nc2cc(/C=C/C(=O)NO)c(F)cc2c(=O)n1CCc1ccccc1", "group": "False"}
{"molecule": "C[C@H](NC(=O)c1c(N)nn2cccnc12)c1cc2cccc(C#Cc3cnn(C)c3)c2c(=O)n1-c1ccccc1", "group": "True"}

Exercise: # bool: growth of Cc1ccc(Nc2nccc(N(C)c3ccc4c(C)n(C)nc4c3)n2)cc1S(N)(=O)=O >= 10%
Solution: True

Exercise: Repeat for the following molecule: Cc1cnc(Nc2ccc(OCCN3CCCC3)cc2)nc1Nc1cccc(S(=O)(=O)NC(C)(C)C)c1
Solution: False

Exercise: Repeat for the following molecule: COCC(=O)NC/C=C/c1ccc2ncnc(Nc3ccc(Oc4ccc(C)nc4)c(C)c3)c2c1
Solution: True

Exercise: Repeat for the following molecule: CC(C)(C)c1nc(-c2cccc(NS(=O)(=O)c3c(F)cccc3F)c2F)c(-c2ccnc(N)n2)s1
Solution: True

Exercise: Repeat for the following molecule: COc1cc2c(Nc3ccc(Br)cc3F)ncnc2cc1OCC1CCN(C)CC1
Solution: True

----------
# Test system: SF-539 CNS
# protocol.text: NCI-60 one-dose screen, 48 h
# run.conditions: 10 µM unless noted
Compounds without any hit were thinned out: in the full panel of roughly 83,000, 20% have a hit. Active and inactive are the calls of the source. The calls were made as follows: active = growth percent below 10; inactive = the rest.
Write down one outcome, taken from 1 = active, -1 = inactive

Examples from the recorded data:
{"smiles.input": "C=CC(=O)Nc1cccc(Nc2nc(Nc3ccc(N4CCN(C(C)=O)CC4)cc3OC)ncc2C(F)(F)F)c1", "group": -1}
{"smiles.input": "NC[C@@](O)(c1ccc(Cl)cc1)c1ccc(-c2cn[nH]c2)cc1", "group": 1}
{"smiles.input": "O=C(CNc1nnc(-c2ccc(Cl)cc2)o1)Nc1ccc(-c2nc3ccccc3s2)cc1", "group": -1}
{"smiles.input": "Cc1cccc(NC(=O)[C@@H]2c3ccccc3C(=O)N(c3ccc(Cl)cc3)[C@H]2c2ccc(Cl)cc2)n1", "group": -1}
{"smiles.input": "Cc1nc(NC(=O)N2CCC[C@H]2C(N)=O)sc1-c1ccnc(C(C)(C)C(F)(F)F)c1", "group": -1}

Exercise: For CC(=O)c1c(C)c2cnc(Nc3ccc(N4CCNCC4)cn3)nc2n(C2CCCC2)c1=O , what call appears in the results of this test?
Solution: -1

----------
# Tested on: NCI/ADR-RES ovarian
# protocol.text: NCI-60 one-dose screen, 48 h (100 = growth as untreated, 0 = no growth, -100 = all killed)
# run.conditions: 10 µM unless noted
The panel holds about 83,000 compounds, 20% with a hit somewhere; the sample as a whole holds those more often.
Below, each of the compounds is paired with its reported growth value.
Reply numerically in %, unit not repeated.

Worked set:
{"compound": "CN[C@@H]1C[C@H]2O[C@@](C)([C@@H]1OC)n1c3ccccc3c3c4c(c5c6ccccc6n2c5c31)C(=O)N[C@H]4O", "target.or.test.system": "NCI/ADR-RES ovarian", "growth [%]": -39.1}
{"compound": "Clc1ccc2c(NCCCNCc3ccc4c(c3)OCO4)ccnc2c1", "target.or.test.system": "NCI/ADR-RES ovarian", "growth [%]": 74.3}
{"compound": "Cc1c(Cn2c(C)nc3c(C(=O)O)cc(N4CCOCC4)cc32)cccc1C(F)(F)F", "target.or.test.system": "NCI/ADR-RES ovarian", "growth [%]": 62.1}

Exercise: growth of CN1CCC(CNc2ccc3ncc(-c4cccc(OC(F)(F)F)c4)n3n2)CC1 on NCI/ADR-RES ovarian?
Solution: -4.75

Exercise: Repeat for the following compound: Cc1nn(-c2nc3ccccc3[nH]2)c2c1C(c1ccc(O)cc1)CC(=O)N2 (stereo not given)
Solution: 88.5

----------
# System: CCRF-CEM leukemia
# protocol.text: NCI-60 one-dose screen, 48 h (100 = growth as untreated, 0 = no growth, -100 = all killed)
# run.conditions: 10 µM unless noted
This is part of a sample that, as a whole, favours compounds with a hit. Of some 83,000 tested, about 20% had one in any assay.
Below, each of the compounds is paired with its reported growth value.
Reply numerically in %, unit not repeated.

Worked set:
{"compound": "CO[C@H]1C[C@@H]2CC[C@@H](C)[C@@](O)(O2)C(=O)C(=O)N2CCCC[C@H]2C(=O)O[C@H]([C@H](C)C[C@@H]2CC[C@@H](OP(C)(C)=O)[C@H](OC)C2)CC(=O)[C@H](C)/C=C(\\C)[C@@H](O)[C@@H](OC)C(=O)[C@H](C)C[C@H](C)\\C=C/C=C/C=C/1C", "unit.label": "%", "growth": 37.2}
{"compound": "CN1CCN(c2nc(NCCNc3ccnc4cc(Cl)ccc34)c3ccccc3n2)CC1", "unit.label": "%", "growth": 3.19}
{"compound": "CCNC(=O)C#Cc1ccc2c(C(=Nc3ccc(CN(C)C)cc3)c3ccccc3)c(O)[nH]c2c1", "unit.label": "%", "growth": 17.3}

Exercise: growth of Cc1ccc(C(=O)Nc2ccc(CN3CCN(C)CC3)c(C(F)(F)F)c2)cc1C#Cc1cnc2cccnn12 on CCRF-CEM leukemia?
Solution: -29.5

Exercise: Repeat for the following compound: COc1ccc(C2OC(c3cc(-c4cc5ccccc5o4)nn3-c3ccccc3)=NN2C(C)=O)cc1 (stereo not drawn)
Solution: 95.5

Exercise: Repeat for the following compound: CN1CCN(CC(=O)Nc2ccc(-c3nc4ccccc4s3)cc2)CC1
Solution: 63.7

Exercise: Repeat for the following compound: CCOC(=O)C1=C(C)NC(=O)NC1c1cc(=O)oc2ccc(C)cc12 (stereo not drawn)
Solution: 101

Exercise: Repeat for the following compound: Cn1ccnc1C(=O)/C=C/c1ccc(CC(=O)Nc2ccc(Br)cc2)cc1
Solution: 11.9

----------
Below, each of the compounds is paired with its reported growth value.
# Test system: OVCAR-8 ovarian
# protocol.text: NCI-60 one-dose screen, 48 h (100 = growth as untreated, 0 = no growth, -100 = all killed)
# run.conditions: 10 µM unless noted
This is part of a sample that, as a whole, favours compounds with a hit. Of some 83,000 tested, about 20% had one in any assay.
Reply numerically in %, unit not repeated.

{"compound": "CNC(=O)c1cc(Oc2cccc3nc(Nc4ccc(Oc5ccccc5)cc4)ccc23)ccn1", "growth / %": 75.8}
{"compound": "CC[C@H](CO)Nc1nc(NCc2ccccc2)c2ncn(C(C)C)c2n1", "growth / %": 63.8}
{"compound": "COc1cc2c(cc1OCCCCN1CCN(CC(=O)Nc3ccc(Cl)cc3C(=O)c3ccccc3Cl)CC1)N=CC1CCCN1C2=O (stereo not given)", "growth / %": -65.5}
{"compound": "O=c1[nH]ccc2c(S(=O)(=O)N3CCCNCC3)cccc12", "growth / %": 90.4}

Consider the record given below.
Exercise: What value of growth has been recorded for this entry: Cn1cc(-c2[nH]c3cc(NC(=O)[C@H](N)C4CCCCC4)cc4c3c2C=NNC4=O)cn1
Solution: -29.5

----------
# System: KM12 colon
# protocol.text: NCI-60 one-dose screen, 48 h (100 = growth as untreated, 0 = no growth, -100 = all killed)
# run.conditions: 10 µM unless noted
About 83,000 compounds went through this panel and 20% of them were active in at least one assay; those are over-represented in the sample as a whole.
Classification field: condition met = growth at or over -10%; condition not met = growth under -10%.

{"molecule": "CC#CC(=O)N1CCC[C@H]1c1nc(-c2ccc(C(=O)Nc3ccccn3)cc2)c2c(N)nccn12", "group": "condition met"}
{"molecule": "O=C(O)C1(Cc2cccc(Nc3nccs3)n2)CCC(Oc2cccc(Cl)c2F)CC1 (stereo not drawn)", "group": "condition met"}
{"molecule": "COc1cc2c(cc1OCCCCCCN1CCN(c3ncnc4ccccc34)CC1)N=CC1CCCN1C2=O (stereo not drawn)", "group": "condition not met"}
{"molecule": "C[C@H](NC(=O)c1c(N)nn2cccnc12)c1cc2cccc(C#Cc3cnn(C)c3)c2c(=O)n1-c1ccccc1", "group": "condition not met"}
{"molecule": "Fc1ccc(NCc2cn(-c3ccccc3)nc2-c2ccc(OCc3ccccc3)cc2)cc1Cl", "group": "condition met"}
{"molecule": "O=C(COc1ccc(/C=C2\\Cc3ccc(Cl)cc3C2=O)cc1)Nc1nccs1", "group": "condition met"}

Exercise: # bool: growth of C=CCC(=O)N[C@H](/C=C/C(=O)O)Cc1ccc(-c2cc(Cl)cc(Cl)c2)cc1 >= -10%
Solution: condition met

Exercise: Repeat for the following molecule: COC(=O)[C@]12CC[C@@H](C)[C@H](C)[C@@H]1C1=CC[C@@H]3[C@@]4(C)C(C=O)=C[C@@](C)(COS(C)(=O)=O)C4=CC[C@@]3(C)[C@]1(C)CC2
Solution: condition not met
